target: KRas G12D (Homo sapiens, UniProt P01116, G12D); assay: biochemical; conditions: Binding to KRas (IC50 nM) G12D, TR-FRET displacement, KRas G12D
Sequence (P01116 1-169 isoform P01116-2 G12D): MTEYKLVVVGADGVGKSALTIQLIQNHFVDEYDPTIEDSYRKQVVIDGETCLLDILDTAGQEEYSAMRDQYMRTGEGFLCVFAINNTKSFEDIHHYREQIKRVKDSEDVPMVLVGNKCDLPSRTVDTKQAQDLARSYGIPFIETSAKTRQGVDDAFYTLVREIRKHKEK
measurement.type: IC50 (nM)

These recorded examples may help you get a feel for the data.
CCc1c(F)ccc2cc(O)cc(N3CCc4c(nc(OC[C@@]56CCCN5C[C@H](F)C6)nc4N4C[C@H]5C[C@@H](C4)C(=O)NC5=O)C3)c12 | 4
Cc1cc2[nH]ncc2c(N2CCc3c(nc(OCC45CCCN4CCC5)nc3N3CCCC4(CNS(=O)(=O)N4)C3)C2)c1C (stereo not drawn) | 4
CCc1c(F)ccc2cc(O)cc(N3CCc4c(nc(OCC5(CN(C)C)CC5)nc4N4C[C@@H]5C[C@H](C4)[C@H](O)C5)C3)c12 | 6
CCc1cccc2cccc(N3CCc4c(nc(OCC5(CN(C)C)CC5)nc4NCc4cc(CO)[nH]n4)C3)c12 | 9320
CCc1cccc2cccc(N3CCc4c(nc(OCC56CCCN5CCC6)nc4N4CCC(O)CC(S(C)(=O)=O)C4)C3)c12 (single isomer, unassigned) | 99
CCc1cccc2cccc(N3CCc4c(nc(OCC5(CN(C)C)CC5)nc4N4CCCC(c5ncc[nH]5)C4)C3)c12 (stereo not drawn) | 1650

I = CCc1cccc2cccc(N3CCc4c(nc(OCC5(CN(C)C)CC5)nc4NCc4ccnn4C4CC4(F)F)C3)c12 (stereo not drawn)
II = CCc1c(F)ccc2cc(O)cc(N3CCc4c(nc(OC[C@@]56CCCN5C[C@H](F)C6)nc4N4CCCn5nc(N(C)S(N)(=O)=O)cc5C4)C3)c12
Problem: In terms of reported IC50, does I or II have the smaller number? Returns: label corresponding to the selected item.
Result: II

I = CCc1cccc2cccc(N3CCc4c(nc(OCC5(CN(C)C)CC5)nc4NCCc4sc(N)nc4C)C3)c12
II = CCc1c(F)ccc2cc(O)cc(N3CCc4c(nc(OC[C@@]56CCCN5C[C@H](F)C6)nc4N4CCCSCC4)C3)c12
III = CCc1cccc2cccc(N3CCc4c(nc(OCC5(CN(C)C)CC5)nc4N4CCCC(c5c[nH]nn5)C4)C3)c12 (stereo not drawn)
Problem: Sort the compounds on IC50; start with the lowest figure. Answer by listing the labels in the order asked for.
Result: II, III, I
(II: 13 nM, III: 5890 nM, I: 9750 nM)

----------
target: KRas G12D (Homo sapiens, UniProt P01116, G12D); assay: biochemical; conditions: Binding to KRas (IC50 nM) G12D, TR-FRET displacement, KRas G12D
measurement.type: IC50 (nM)

CCc1cccc2cccc(N3CCc4c(nc(OCC5(CN(C)C)CC5)nc4N4CCCC(c5c[nH]cn5)C4)C3)c12 (centres unmarked) | 5490

I = CCc1c(F)ccc2cc(O)cc(N3CCc4c(nc(OC[C@@]56CCCN5C[C@H](F)C6)nc4NCc4cc(C(=O)N(C)C)nn4C)C3)c12
II = CCc1cccc2cccc(N3CCc4c(nc(OCC5(CN(C)C)CC5)nc4N4CCCOCC4)C3)c12
III = CCc1c(F)ccc2cc(O)cc(N3CCc4c(nc(OCC5(CN(C)C)CC5)nc4N4CC(C)CC(CO)C4)C3)c12 (centres unmarked)
IV = CCc1c(F)ccc2cc(O)cc(N3CCc4c(nc(OC[C@@]56CCCN5C[C@H](F)C6)nc4NCC4CNS(=O)(=O)N4)C3)c12 (some centres unmarked)
V = CCc1cccc2cccc(N3CCc4c(nc(OCC5(CN(C)C)CC5)nc4NCc4ccnn4CC(F)F)C3)c12
Problem: # rank_down: sort by IC50, max first Your reply should list the labels following the order given in the request.
Result: V, II, IV, III, I

A = CCc1c(F)ccc2cc(O)cc(N3CCc4c(nc(OC[C@@]56CCCN5C[C@H](F)C6)nc4N4CCCn5nc(NC)c(C)c5C4)C3)c12
B = CCc1cccc2cccc(N3CCc4c(nc(OCC5(CN(C)C)CC5)nc4N4CCCOC(C)C4)C3)c12 (centres unmarked)
Problem: Given A and given B , which shows the smaller recorded IC50? State the label of the item chosen.
Result: A
(A: 4 nM, B: 223 nM)

----------
biological target: KRas G12V (Homo sapiens, UniProt P01116, G12V); test: biochemical; settings: Binding to KRas (IC50 nM) G12V, TR-FRET displacement, KRas G12V
Sequence (P01116 1-169 isoform P01116-2 G12V): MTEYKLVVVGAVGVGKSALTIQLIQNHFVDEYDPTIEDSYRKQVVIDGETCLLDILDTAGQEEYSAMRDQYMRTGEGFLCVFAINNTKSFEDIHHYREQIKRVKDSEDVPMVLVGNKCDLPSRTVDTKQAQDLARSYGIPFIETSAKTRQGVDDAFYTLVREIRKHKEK
measurement.type: IC50 (nM)

P = CCc1c(F)ccc2cc(O)cc(N3CCc4c(nc(OC[C@@]56CCCN5C[C@H](F)C6)nc4N4CCCn5nc(CC(=O)N(C)C)cc5C4)C3)c12
Q = CCc1c(F)ccc2cc(O)cc(N3CCc4c(nc(OCC5(CN(C)C)CC5)nc4N4C[C@@H]5C[C@H](C4)[C@H](O)C5)C3)c12
Problem: Rank P against Q by their IC50 values and give the higher one. Give the label of your selection.
Result: P

----------
biological target: KRas WT (Homo sapiens); assay: KRas binding assay (TR-FRET displacement), KRas WT; settings: TR-FRET displacement
Sequence (P01116 1-169 isoform P01116-2): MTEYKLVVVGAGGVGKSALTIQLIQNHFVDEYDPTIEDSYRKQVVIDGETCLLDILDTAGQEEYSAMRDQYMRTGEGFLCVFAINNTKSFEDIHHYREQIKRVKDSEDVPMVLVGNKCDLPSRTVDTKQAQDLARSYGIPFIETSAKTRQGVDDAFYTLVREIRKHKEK
measurement.type: IC50 (nM)

a = C=C1CN2CCCC2(COc2nc3c(c(N4CCCC5(CNS(=O)(=O)N5)C4)n2)CCN(c2cc(O)cc4ccc(F)c(CC)c24)C3)C1 (stereo not drawn)
b = CCc1cccc2cccc(N3CCc4c(nc(OCC5(CN(C)C)CC5)nc4N(C)Cc4nnnn4C)C3)c12
Problem: Response body: label of entry with the larger IC50; valid values a , b . Give the chosen item's label as your response.
Result: b
(b: 26700 nM, a: 2 nM)

a = CCc1cccc2cccc(N3CCc4c(nc(OCC56CCCN5CCC6)nc4N4CCC(O)CC(S(C)(=O)=O)C4)C3)c12 (single isomer, unassigned)
b = CCc1cccc2cccc(N3CCc4c(nc(OCC5(CN(C)C)CC5)nc4NCCc4nnc(N)o4)C3)c12
Problem: Min IC50? a | b Use the label to indicate which entry you chose.
Result: a
(a: 33 nM, b: 23900 nM)

----------
target: KRas G12D (Homo sapiens, UniProt P01116, G12D); experiment: biochemical; settings: Binding to KRas (IC50 nM) G12D, TR-FRET displacement, KRas G12D
Each item that follows carries a reported IC50.

Problem: Determine its reported IC50: CCc1c(F)ccc2cc(O)cc(N3CCc4c(nc(OCC56CCCN5C/C(=C\F)C6)nc4N4CCC[C@@](C)(O)C4)C3)c12 (stereo partly drawn)
Result: < 2 nM

Problem: Quickly give me recorded IC50 for CCc1c(F)ccc2cc(O)cc(N3CCc4c(nc(OC[C@@]56CCCN5C[C@H](F)C6)nc4N4CCCn5nc(C(=O)N6CC7CC6CN7)cc5C4)C3)c12 (stereo partly drawn)
Result: < 2 nM

Problem: Specify measured IC50 for CCc1c(F)ccc2cc(O)cc(N3CCc4c(nc(OC[C@@]56CCCN5C[C@H](F)C6)nc4N4CCCCn5nc(C(=O)N(C)C)c(Cl)c5C4)C3)c12 .
Result: < 2 nM

Problem: Identify the reported IC50 for the following entry. CCc1cccc2cccc(N3CCc4c(nc(OCC5(CN(C)C)CC5)nc4N4CCCC(n5ccc(C)n5)C4)C3)c12 (stereo not drawn)
Result: 7570 nM

Problem: Identify measured IC50 corresponding to CCc1c(F)ccc2cc(O)cc(N3CCc4c(nc(OC[C@@]56CCCN5C[C@H](F)C6)nc4N4CCCCn5nc(C(=O)NC(C)C)c(Cl)c5C4)C3)c12
Result: < 2 nM

Problem: Note IC50 for the molecule shown: CCc1c(F)ccc2cc(O)cc(N3CCc4c(nc(OC[C@@]56CCCN5C[C@H](F)C6)nc4N4CCCn5nc(C(=O)NC(C)C)c(C)c5C4)C3)c12
Result: 2 nM

----------
tested on: A549 cells; experiment: Inhibition of KRas-mediated phosphorylation of ERK (Cisbio HTRF pERK), A549 cells; type: cell-based; conditions: Homo sapiens, A549, 3 h, 3 hr compound incubation, Cisbio pERK HTRF
measurement.type: IC50 (nM)

CCc1c(F)ccc2cc(O)cc(N3CCc4c(nc(OC[C@@]56CCCN5C[C@H](F)C6)nc4N4CCCn5nc(C(=O)N6C7CCCC6CC7)cc5C4)C3)c12 [Example 341] | 19
CCc1c(F)ccc2cc(O)cc(N3CCc4c(nc(OC[C@@]56CCCN5C[C@H](F)C6)nc4N4CCCn5nc(C(=O)N6CCC7CC76)cc5C4)C3)c12 (stereo partly drawn) [Example 344] | 7

1 = CCc1c(F)ccc2cc(O)cc(N3CCc4c(nc(OC[C@@]56CCCN5C[C@H](F)C6)nc4N4CCCn5nc(C(=O)N6CC7CC6C7)cc5C4)C3)c12 [Example 342]
2 = CCc1c(F)ccc2cc(O)cc(N3CCc4c(nc(OC[C@@]56CCCN5C[C@H](F)C6)nc4N4CCCn5nc(C(=O)N6CC7CCC(C7)C6)cc5C4)C3)c12 [Example 302]
3 = CCc1c(F)ccc2cc(O)cc(N3CCc4c(nc(OC[C@@]56CCCN5C[C@H](F)C6)nc4N4CCCn5nc6c(c5C4)CCNC6=O)C3)c12 [Example 408]
4 = CCc1c(F)ccc2cc(O)cc(N3CCc4c(nc(OC[C@@]56CCCN5C[C@H](F)C6)nc4N4Cc5cn(C(=O)N(C)C)nc5CC(C)C4)C3)c12 (stereo partly drawn) [Example 422]
Problem: Give the ascending ranking of the items by reported IC50. Provide the ranking by listing each label in its place in the requested order.
Result: 1, 2, 4, 3

// provenance: patent US20250368649A1
